Experimental System: UniProt:P21589
Sequence (P21589 27-574): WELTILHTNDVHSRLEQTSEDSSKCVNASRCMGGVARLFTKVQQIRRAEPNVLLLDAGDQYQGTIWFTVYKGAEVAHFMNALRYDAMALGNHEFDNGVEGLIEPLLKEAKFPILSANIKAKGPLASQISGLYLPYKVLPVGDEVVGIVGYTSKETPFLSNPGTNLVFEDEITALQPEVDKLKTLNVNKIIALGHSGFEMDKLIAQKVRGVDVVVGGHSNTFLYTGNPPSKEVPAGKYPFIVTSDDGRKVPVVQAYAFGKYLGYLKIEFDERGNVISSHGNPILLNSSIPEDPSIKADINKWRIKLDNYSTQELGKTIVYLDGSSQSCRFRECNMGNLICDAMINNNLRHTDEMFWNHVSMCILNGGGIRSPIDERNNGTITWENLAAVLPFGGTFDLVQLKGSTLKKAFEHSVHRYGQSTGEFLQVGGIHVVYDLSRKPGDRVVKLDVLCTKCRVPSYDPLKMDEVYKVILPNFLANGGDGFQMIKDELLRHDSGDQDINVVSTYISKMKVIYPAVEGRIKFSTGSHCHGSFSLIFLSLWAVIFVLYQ
Type: biochemical
Run Parameters: 1 mM NaH2PO4 in enzyme buffer, CD73 0.3 nM, AMP 15 uM
Readout: IC50 (nM)
Use nM as the unit, but write only the number.

> print(dat)
                                   molecule  display.unit  measured.value
1  CC1(C)C(=O)N(CC(F)(F)F)c2cc([C@H]3C[C@@H]3c3cc(-c4c[nH]c(=O)[nH]c4=O)nn4ccnc34)cnc21 [Example 698]            nM            3.84

We next turn to a different molecule, shown below.
// query Notebook: pull reported IC50 for UniProt:P21589, entry CC1(C)C(=O)N(CC(F)(F)F)c2cc([C@H]3C[C@@H]3c3cc(-c4c[nH]c(=O)[nH]c4=O)nn4ccnc34)ncc21 (racemic)
// result 3.07
